Cited source for all entries: paper PMC6380468

target: KDM7B (PHD-JmjC) (Homo sapiens, UniProt Q9UPP1); construct: A dual-domain construct of KDM7A/B(PHD-JmjC), consisting of a JmjC domain in addition to the PHD-finger; His; made in house; test: MALDI-TOF MS H3K9me2 demethylation assay, KDM7B(PHD-JmjC); assay type: biochemical; conditions: at 100 µM; MALDI-TOF MS; substrate H3(1–5)K4me3K9me2; read-out: KDM7B (PHD-JmjC) (Catalytic), inhibition of H3K9me2 demethylation
Sequence (Q9UPP1 37-483 limits assumed): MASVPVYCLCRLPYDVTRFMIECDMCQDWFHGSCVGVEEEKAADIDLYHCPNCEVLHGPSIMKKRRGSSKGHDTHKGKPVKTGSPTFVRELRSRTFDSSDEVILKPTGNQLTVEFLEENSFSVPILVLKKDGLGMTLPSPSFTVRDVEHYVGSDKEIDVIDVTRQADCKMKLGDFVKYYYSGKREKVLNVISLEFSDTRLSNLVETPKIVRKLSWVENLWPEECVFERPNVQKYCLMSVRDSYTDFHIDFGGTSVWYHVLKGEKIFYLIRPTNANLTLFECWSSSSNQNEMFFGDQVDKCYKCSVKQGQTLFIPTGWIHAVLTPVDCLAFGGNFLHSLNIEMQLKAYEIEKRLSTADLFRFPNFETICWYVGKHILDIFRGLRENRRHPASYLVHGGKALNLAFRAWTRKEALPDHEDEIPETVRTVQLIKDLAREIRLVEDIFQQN
Quick list: inhibition at 100 µM per entry.
Report as: number unit

Example compounds with recorded inhibition at 100 µM:
[
  {
    "Compound": "CCCCc1oc2ccccc2c1C(=O)c1ccc(OCCC[N+](C)(C)C)cc1.[I-] [Compound 2a]",
    "inhibition at 100 µM": "89%"
  },
  {
    "Compound": "CCCCc1oc2ccccc2c1C(=O)c1cc(I)c(OCCC[N+](C)(C)C)c(I)c1.[I-] [WAG-005, reference compound]",
    "inhibition at 100 µM": "33%"
  },
  {
    "Compound": "CCCCc1oc2ccccc2c1C(=O)c1ccc(OCCCN(C)C)cc1 [Compound 1a]",
    "inhibition at 100 µM": "95%"
  }
]

Look up inhibition at 100 µM for this compound: Cc1oc2ccccc2c1C(=O)c1ccc(OCCC[N+](C)(C)C)cc1.[I-] [Compound 2b]
32%

Try this compound too: CCCCc1oc2ccccc2c1C(=O)c1cc(I)c(OCCN(CC)CC)c(I)c1 [AMI, amiodarone, reference compound]
22%

Then this compound: CCCCc1oc2ccccc2c1C(=O)c1cc(I)c(OCC[N+](C)(C)C)c(I)c1.[I-] [WAG-003, reference compound]
22%
